Tested on: LCLC-97TM1
Test details: relative viability (nuclei count vs DMSO), 5 days (fraction); higher = more cells survive
Condition: first compound 0.1 µM
Measured property: relative viability
API doc: respond with a numeric literal and nothing else, no unit.

Record excerpt, results attached:
CCN(CC)CCCCNc1ncc2cc(-c3cc(OC)cc(OC)c3)c(NC(=O)NC(C)(C)C)nc2n1 + Cc1nc(Nc2ncc(C(=O)Nc3c(C)cccc3Cl)s2)cc(N2CCN(CCO)CC2)n1 [Dasatinib] (partner 0.075 µM) : 0.93
CCN(CC)CCCCNc1ncc2cc(-c3cc(OC)cc(OC)c3)c(NC(=O)NC(C)(C)C)nc2n1 + C[C@]1(O)C[C@@H](c2nc(-c3ccc4ccc(-c5ccccc5)nc4c3)c3c(N)nccn32)C1 [Linsitinib] (partner 1 µM) : 0.23

Attention now shifts to the item below.
Request: Which relative viability value belongs to O=c1cc(N2CCOCC2)oc2c(-c3cccc4c3sc3ccccc34)cccc12 + Cc1cc(Nc2cc(N3CCN(C)CC3)nc(Sc3ccc(NC(=O)C4CC4)cc3)n2)n[nH]1 [Tozasertib] (partner 0.1 µM) ?
Result: 0.28

###

Tested on: COR-L 105
Test details: relative viability (nuclei count vs DMSO), 5 days (fraction); higher = more cells survive
Condition: first compound 0.2 µM
Measured property: relative viability
API doc: respond with a numeric literal and nothing else, no unit.

Record excerpt, results attached:
COCC1(CO)C(=O)C2CCN1CC2 (configuration not stated) [PRIMA-1MET] + O=C(CCCCCCC(=O)Nc1ccccc1)NO [Vorinostat] (partner 1 µM) : 1.13
COCC1(CO)C(=O)C2CCN1CC2 (configuration not stated) [PRIMA-1MET] + CCNC(=O)c1noc(-c2cc(C(C)C)c(O)cc2O)c1-c1ccc(CN2CCOCC2)cc1 [Luminespib] (partner 0.01 µM) : 0.775
COCC1(CO)C(=O)C2CCN1CC2 (configuration not stated) [PRIMA-1MET] + Nc1ncn([C@H]2C[C@H](O)[C@@H](CO)O2)c(=O)n1 [Decitabine] (partner 2 µM) : 0.695
COCC1(CO)C(=O)C2CCN1CC2 (configuration not stated) [PRIMA-1MET] + Cc1cc(Nc2cc(N3CCN(C)CC3)nc(Sc3ccc(NC(=O)C4CC4)cc3)n2)n[nH]1 [Tozasertib] (partner 0.1 µM) : 0.228
COCC1(CO)C(=O)C2CCN1CC2 (configuration not stated) [PRIMA-1MET] + C[C@]1(O)C[C@@H](c2nc(-c3ccc4ccc(-c5ccccc5)nc4c3)c3c(N)nccn32)C1 [Linsitinib] (partner 1 µM) : 0.943
COCC1(CO)C(=O)C2CCN1CC2 (configuration not stated) [PRIMA-1MET] + C[C@@H](Oc1cc(-c2cnn(C3CCNCC3)c2)cnc1N)c1c(Cl)ccc(F)c1Cl [Crizotinib] (partner 1 µM) : 0.918

Request: Which relative viability value belongs to COCC1(CO)C(=O)C2CCN1CC2 (configuration not stated) [PRIMA-1MET] + COc1cccc2cc(-c3nc([C@H]4CC[C@H](C(=O)O)CC4)n4ncnc(N)c34)[nH]c12 [OSI-027] (partner 0.5 µM) ?
Result: 0.899

###

Listed compounds paired with reported relative viability
Tested on: NCI-H596
Test details: relative viability (nuclei count vs DMSO), 5 days (fraction); higher = more cells survive
Condition: first compound 0.08 µM
API doc: respond with a numeric literal and nothing else, no unit.

COc1nc(C)cnc1NS(=O)(=O)c1cccnc1-c1ccc(-c2nnco2)cc1 [Zibotentan] + CCNC(=O)c1noc(-c2cc(C(C)C)c(O)cc2O)c1-c1ccc(CN2CCOCC2)cc1 [Luminespib] (partner 0.01 µM) : 1.02
O=c1cc(-c2cccc3c2Sc2ccccc2S3)oc(N2CCOCC2)c1 + Cc1nc(Nc2ncc(C(=O)Nc3c(C)cccc3Cl)s2)cc(N2CCN(CCO)CC2)n1 [Dasatinib] (partner 0.075 µM) : 0.662
COc1nc(C)cnc1NS(=O)(=O)c1cccnc1-c1ccc(-c2nnco2)cc1 [Zibotentan] + CS(=O)(=O)N1CCN(Cc2cc3nc(-c4cccc5[nH]ncc45)nc(N4CCOCC4)c3s2)CC1 [Pictilisib] (partner 1 µM) : 0.446

Request: Which relative viability value belongs to COc1nc(C)cnc1NS(=O)(=O)c1cccnc1-c1ccc(-c2nnco2)cc1 [Zibotentan] + O=C(CCCCCCC(=O)Nc1ccccc1)NO [Vorinostat] (partner 1 µM) ?
Result: 0.568

Request: What do we get for O=c1cc(-c2cccc3c2Sc2ccccc2S3)oc(N2CCOCC2)c1 + O=C(CCCCCCC(=O)Nc1ccccc1)NO [Vorinostat] (partner 1 µM) ?
Result: 0.51

Request: What do we get for O=c1cc(-c2cccc3c2Sc2ccccc2S3)oc(N2CCOCC2)c1 + COc1cc2c(Oc3ccc(NC(=O)C4(C(=O)Nc5ccc(F)cc5)CC4)cc3F)ccnc2cc1OCCCN1CCOCC1 [Foretinib] (partner 0.25 µM) ?
Result: 0.783

###

Test system: NCI-H2023
Test details: relative viability (nuclei count vs DMSO), 5 days (fraction); higher = more cells survive
Condition: first compound 0.03162 µM
Measured property: relative viability
API doc: respond with a numeric literal and nothing else, no unit.

Record excerpt, results attached:
CCN(CC)CCCCNc1ncc2cc(-c3cc(OC)cc(OC)c3)c(NC(=O)NC(C)(C)C)nc2n1 + Cc1nc(Nc2ncc(C(=O)Nc3c(C)cccc3Cl)s2)cc(N2CCN(CCO)CC2)n1 [Dasatinib] (partner 0.075 µM) : 0.675
CCN(CC)CCCCNc1ncc2cc(-c3cc(OC)cc(OC)c3)c(NC(=O)NC(C)(C)C)nc2n1 + C[C@@H](Oc1cc(-c2cnn(C3CCNCC3)c2)cnc1N)c1c(Cl)ccc(F)c1Cl [Crizotinib] (partner 1 µM) : 0.627
O=c1cc(N2CCOCC2)oc2c(-c3cccc4c3sc3ccccc34)cccc12 + C[C@]1(O)C[C@@H](c2nc(-c3ccc4ccc(-c5ccccc5)nc4c3)c3c(N)nccn32)C1 [Linsitinib] (partner 1 µM) : 0.66

Attention now shifts to the item below.
Request: Which relative viability value belongs to O=c1cc(N2CCOCC2)oc2c(-c3cccc4c3sc3ccccc34)cccc12 + COc1cc2c(Oc3ccc(NC(=O)C4(C(=O)Nc5ccc(F)cc5)CC4)cc3F)ccnc2cc1OCCCN1CCOCC1 [Foretinib] (partner 0.25 µM) ?
Result: 0.803

###

System: BEN
Test details: relative viability (nuclei count vs DMSO), 5 days (fraction); higher = more cells survive
Condition: first compound 20 µM
Measured property: relative viability
API doc: respond with a numeric literal and nothing else, no unit.

Request: Which relative viability value belongs to COCC1(CO)C(=O)C2CCN1CC2 (stereo unspecified) [PRIMA-1MET] + C[C@@H](Oc1cc(-c2cnn(C3CCNCC3)c2)cnc1N)c1c(Cl)ccc(F)c1Cl [Crizotinib] (partner 1 µM) ?
Result: 0.735

Request: What do we get for COCC1(CO)C(=O)C2CCN1CC2 (stereo unspecified) [PRIMA-1MET] + C[C@]1(O)C[C@@H](c2nc(-c3ccc4ccc(-c5ccccc5)nc4c3)c3c(N)nccn32)C1 [Linsitinib] (partner 1 µM) ?
Result: 0.85

Request: What do we get for COCC1(CO)C(=O)C2CCN1CC2 (stereo unspecified) [PRIMA-1MET] + COc1cc2c(Oc3ccc(NC(=O)C4(C(=O)Nc5ccc(F)cc5)CC4)cc3F)ccnc2cc1OCCCN1CCOCC1 [Foretinib] (partner 0.25 µM) ?
Result: 0.954

Request: What do we get for COCC1(CO)C(=O)C2CCN1CC2 (stereo unspecified) [PRIMA-1MET] + O=C(c1cc(Cc2n[nH]c(=O)c3ccccc23)ccc1F)N1CCN(C(=O)C2CC2)CC1 [Olaparib] (partner 8 µM) ?
Result: 1.07

Request: What do we get for COCC1(CO)C(=O)C2CCN1CC2 (stereo unspecified) [PRIMA-1MET] + Cc1cc(Nc2cc(N3CCN(C)CC3)nc(Sc3ccc(NC(=O)C4CC4)cc3)n2)n[nH]1 [Tozasertib] (partner 0.1 µM) ?
Result: 0.538

Request: What do we get for COCC1(CO)C(=O)C2CCN1CC2 (stereo unspecified) [PRIMA-1MET] + CC(C)C[C@H](NC(=O)[C@H](Cc1ccccc1)NC(=O)c1cnccn1)B(O)O [Bortezomib] (partner 0.002 µM) ?
Result: 0.864

###

System: NCI-H661
Test details: relative viability (nuclei count vs DMSO), 5 days (fraction); higher = more cells survive
Condition: first compound 0.03162 µM
Listed compounds paired with reported relative viability
API doc: respond with a numeric literal and nothing else, no unit.

Request: Lab request: please report relative viability under test system NCI-H661 for CCN(CC)CCCCNc1ncc2cc(-c3cc(OC)cc(OC)c3)c(NC(=O)NC(C)(C)C)nc2n1 + C[C@@H](Oc1cc(-c2cnn(C3CCNCC3)c2)cnc1N)c1c(Cl)ccc(F)c1Cl [Crizotinib] (partner 1 µM)
Result: 1.03

Request: What do we get for O=c1cc(N2CCOCC2)oc2c(-c3cccc4c3sc3ccccc34)cccc12 + Nc1ncn([C@H]2C[C@H](O)[C@@H](CO)O2)c(=O)n1 [Decitabine] (partner 2 µM) ?
Result: 0.53

Request: What do we get for O=c1cc(N2CCOCC2)oc2c(-c3cccc4c3sc3ccccc34)cccc12 + O=C(CCCCCCC(=O)Nc1ccccc1)NO [Vorinostat] (partner 1 µM) ?
Result: 0.793

Request: What do we get for CCN(CC)CCCCNc1ncc2cc(-c3cc(OC)cc(OC)c3)c(NC(=O)NC(C)(C)C)nc2n1 + CC(=O)c1c(C)c2cnc(Nc3ccc(N4CCNCC4)cn3)nc2n(C2CCCC2)c1=O [Palbociclib] (partner 0.5 µM) ?
Result: 0.41

Request: What do we get for CCN(CC)CCCCNc1ncc2cc(-c3cc(OC)cc(OC)c3)c(NC(=O)NC(C)(C)C)nc2n1 + Cc1nc(NC(=O)N2CCC[C@H]2C(N)=O)sc1-c1ccnc(C(C)(C)C(F)(F)F)c1 [Alpelisib] (partner 2 µM) ?
Result: 0.382

Request: What do we get for O=c1cc(N2CCOCC2)oc2c(-c3cccc4c3sc3ccccc34)cccc12 + Cc1nc(NC(=O)N2CCC[C@H]2C(N)=O)sc1-c1ccnc(C(C)(C)C(F)(F)F)c1 [Alpelisib] (partner 2 µM) ?
Result: 0.243
